meta.source: patent US9040538B2

Catalogue of Peak paw withdrawal latency values
Tested on: rats rendered neuropathic via the CCI model
Experiment: Analgesic effect in chronic constriction injury (CCI) model of neuropathic pain
Type: in vivo, Sprague-Dawley rats
Conditions: mean ± standard error of the mean
Description: Adult, male Sprague-Dawley rats were obtained from Charles River Laboratories (Wilmington, Mass.) and housed under standard conditions at the Institut Armand-Frappier (Laval, QC). Food and water were provided to experimental animals ad libitum, and rats weighed 175-200 grams at the time of assessment. […]

record.smiles: Cc1cc(O)nc(SCc2nn(C)cc2Cl)n1
unit.tag: s
Peak paw withdrawal latency: 11.98
--
record.smiles: CCc1ncccc1CSc1nc(C)cc(O)n1
unit.tag: s
Peak paw withdrawal latency: 10.46
--
record.smiles: Cc1cc(O)nc(SCc2c(Cl)cncc2Cl)n1
unit.tag: s
Peak paw withdrawal latency: 14.49
--
record.smiles: CCc1ncsc1CSc1nc(O)cc(C(F)(F)F)n1
unit.tag: s
Peak paw withdrawal latency: 10.45
--
record.smiles: Oc1cc(C(F)(F)F)nc(SCc2c(Cl)cncc2Cl)n1
unit.tag: s
Peak paw withdrawal latency: 11.7
